# IC50 per entry for Dihydrofolate Reductase (DHFR) (Homo sapiens)
Quick note: number first, unit second.

* Nc1nc(O)c2cc(CCc3ccc(C(=O)N[C@@H](CCC(=O)O)C(=O)O)cc3)cnc2n1 | 49000 nM

Query string: # value lookup — system Dihydrofolate Reductase (DHFR) (Homo sapiens), readout IC50, item Nc1nc(N)c2c(n1)NCC(CCc1ccc(C(=O)N[C@@H](CCC(=O)O)C(=O)O)cc1)C2 (stereo partly drawn)
Result string: 71 nM

Query string: Given the entry `Nc1nc(N)c2cc(CCc3ccc(C(=O)N[C@@H](CCC(=O)O)C(=O)O)cc3)cnc2n1` , what IC50 was observed with Dihydrofolate Reductase (DHFR) (Homo sapiens)?
Result string: 43 nM
